assay: gradient 5% acetonitrile 3 min, to 50% in 2 min, to 85% in 15 min, held 3 min, 100 µL/min; conditions: column: Zorbax Extend-C18 2.1 x 50 mm; eluents: water / acetonitrile, 0.1% formic acid
READOUT_KIND: RP-LC retention time (s)

Take a look at these entries with their results.
# input # lookup: RP-LC retention time of `CCn1cc(-c2nc(CC(=O)Nc3ccccc3)cs2)c2cccnc21`
# output 892

# input # lookup: RP-LC retention time of `Cc1nc(-c2ccc(-c3noc(CNC(=O)Cc4ccccc4)n3)cc2)cs1`
# output 903

# input # lookup: RP-LC retention time of `CCn1cc(-c2nc(C)c(C(=O)Nc3ccc(C)cc3)s2)c2cccnc21`
# output 784

# input # lookup: RP-LC retention time of CC(NC(=O)c1cn(-c2cc(-c3nc(C4CC4)no3)ccn2)cn1)c1ccccc1 (centres undefined)
# output 981

# input # lookup: RP-LC retention time of `CCC(CC)C(=O)N1C[C@H]2C[C@H](C1)[C@H]1CCCC(=O)N1C2`
# output 645

P. CCc1ccccc1N(C)C(=O)Cn1ccc2c(=O)n(C)c(=O)n(C)c21
Q. Fc1ccc(-c2csc(Cc3nc(-c4cccc(Cl)c4)no3)n2)cc1
# input // pick larger RP-LC retention time from pair: P vs Q Provide the label of your selected option as the answer.
# output Q
(Q: 1310 s, P: 735 s)

Values from the METLIN SMRT retention time set (Domingo-Almenara et al. 2019)
